The reported measurements were obtained from ChEMBL document CHEMBL3286272.

assay: Binding affinity to 9:1 DMPG/DMPC giant vesicle at 6.05 uM by fluorescence emission spectra analysis; conditions: in the assay text read “9:1 DMPC/DMPG” for “9:1 DMPG/DMPC”
Activity calls are given as the source filed them. The rule behind the calls is not given here.
Can you answer with just one of these options? Y (active), N (inactive)

- compound: "CCCC(CCC)C(=O)OCC1(CO)C/C(=C\\c2ccc3ccn(C)c3c2)C(=O)O1 (stereo not given)"
  qualitativeLabel: "Y"

Exercise: Assay outcome for CCCC(CCC)C(=O)OCC1(CO)C/C(=C\c2ccc3c(ccn3C)c2)C(=O)O1 (stereo not given) : what was it?
Key: N

* * *

tested on: Lipid bilayer; experiment: Binding affinity to NBD-PE embedded 9:1 DMPC/DMPG giant vesicle at 6.05 uM by FRET analysis
Activity calls are given as the source filed them. The calls are words filed in the database; no cut-off is given here.
Can you answer with just one of these options? 1 for active, 0 for inactive

Consider the following illustrative entries.
- compound: "CCCC(CCC)C(=O)OCC1(CO)C/C(=C\\c2cn(C)c3ccccc23)C(=O)O1 (centres undefined)"
  experimentalTarget: "Lipid bilayer"
  qualitativeLabel: 0
- compound: "CCCC(CCC)C(=O)OCC1(CO)C/C(=C\\c2ccc3ccn(C)c3c2)C(=O)O1 (centres undefined)"
  experimentalTarget: "Lipid bilayer"
  qualitativeLabel: 1
- compound: "CCCC(CCC)C(=O)OCC1(CO)C/C(=C\\c2cccc3ccn(C)c23)C(=O)O1 (centres undefined)"
  experimentalTarget: "Lipid bilayer"
  qualitativeLabel: 1

With those in mind, consider the next compound.
Exercise: Assay outcome for CCCC(CCC)C(=O)OCC1(CO)C/C(=C\c2ccc3c(ccn3C)c2)C(=O)O1 (centres undefined) : what was it?
Key: 1

* * *

Biological target: Ras guanyl-releasing protein 3 (Homo sapiens)
Sequence (whole entry): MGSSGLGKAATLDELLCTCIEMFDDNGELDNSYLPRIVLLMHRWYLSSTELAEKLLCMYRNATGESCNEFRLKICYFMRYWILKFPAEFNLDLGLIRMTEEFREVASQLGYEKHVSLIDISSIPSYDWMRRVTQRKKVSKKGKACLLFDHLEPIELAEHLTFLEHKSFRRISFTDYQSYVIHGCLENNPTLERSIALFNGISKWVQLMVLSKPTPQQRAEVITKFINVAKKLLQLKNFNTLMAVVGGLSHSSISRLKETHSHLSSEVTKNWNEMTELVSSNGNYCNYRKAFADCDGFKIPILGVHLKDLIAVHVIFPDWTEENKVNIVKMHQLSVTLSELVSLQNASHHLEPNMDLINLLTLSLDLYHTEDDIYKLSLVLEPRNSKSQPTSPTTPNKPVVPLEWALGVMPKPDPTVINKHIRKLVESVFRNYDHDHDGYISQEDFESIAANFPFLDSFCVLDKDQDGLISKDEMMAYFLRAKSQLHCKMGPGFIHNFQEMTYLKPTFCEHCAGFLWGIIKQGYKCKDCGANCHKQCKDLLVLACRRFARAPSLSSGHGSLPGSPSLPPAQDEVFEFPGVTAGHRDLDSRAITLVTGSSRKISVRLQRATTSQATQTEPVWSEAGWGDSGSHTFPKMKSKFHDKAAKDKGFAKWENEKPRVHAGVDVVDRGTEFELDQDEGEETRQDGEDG
Assay: Binding affinity to recombinant human GFP-tagged RasGRP3 expressed in human LNCAP cells assessed as induction of protein translocation from plasma membrane to internal membrane at 10000 nM after 2 to 10 mins by confocal microscopic analysis
Assay type: cell-based
Calls of active or inactive are those of the source. The rule behind the calls is not given here.
parameter: Activity

Answered examples (4):
- compound: "CCCC(CCC)C(=O)OCC1(CO)C/C(=C\\c2cccc3c2ccn3C)C(=O)O1 (stereo not given)"
  Activity: "Active"
- compound: "CCCC(CCC)C(=O)OCC1(CO)C/C(=C\\c2ccc3c(ccn3C)c2)C(=O)O1 (stereo not given)"
  Activity: "Active"
- compound: "CCCC(CCC)C(=O)OCC1(CO)C/C(=C\\c2cn(C)c3ccccc23)C(=O)O1 (stereo not given)"
  Activity: "Active"
- compound: "CCCC(CCC)C(=O)OCC1(CO)C/C(=C\\c2cccc3ccn(C)c23)C(=O)O1 (stereo not given)"
  Activity: "Active"

Exercise: Consider the compound shown here: CCCC(CCC)C(=O)OCC1(CO)C/C(=C\c2ccc3ccn(C)c3c2)C(=O)O1 (stereo not given) What is its recorded Activity?
Key: Active
